molecular target: Kir3.1/3.4 (Rattus norvegicus, UniProt P48548+P63251); construct: expressed in transfected cells; experiment: Kir3.1/3.4 Electrophysiology Method (manual whole-cell patch clamp); assay type: cell-based; conditions: Electrophysiology Method (TABLE 1)
READOUT_LABEL: IC50

Use the examples below as a reference point.
CN(C)S(=O)(=O)c1ccc(-c2csc3ncnc(N4CCC(COCCN5CCCC5)CC4)c23)cc1 [Example 44]    500 to 3000 nM
COCC1CC2CCC(C1)N2c1nc(N2CCOCC2)c2c(-c3ccccc3)csc2n1 (stereo not shown) [Example 300]    500 to 3000 nM
CN(C)C1CCCN(CC2CCN(c3nc(N4CCC(C(N)=O)C4)nc4scc(-c5ccccc5)c34)CC2)C1 (stereo not shown) [Example 123]    < 500 nM

Q) Consider the molecule CN(CC(=O)N1CCCC1)CC1CCN(c2ncnc3scc(-c4ccccc4)c23)CC1 [Example 93] and give its measured IC50.
A) 500 to 3000 nM

---

molecular target: Kir3.1/3.4 (Rattus norvegicus, UniProt P48548+P63251); construct: expressed in transfected cells; experiment: Kir3.1/3.4 Electrophysiology Method (manual whole-cell patch clamp); format: cell-based; conditions: Electrophysiology Method (TABLE 1)
READOUT_LABEL: IC50

NC(=O)C1CCN(c2nc(N3C4CCC3CC(NC3CCC3)C4)c3c(-c4ccccc4)csc3n2)C1 (centres unmarked)    500 to 3000 nM
Cc1ccccc1-c1csc2ncnc(N3C4CCC3CC(NC3CCC3)C4)c12 (centres unmarked)    < 500 nM
CN1CCCC1CCOCC1CCN(c2ncnc3sccc23)CC1 (centres unmarked)    3000 to 10000 nM
Fc1ccc(-c2csc3ncnc(N4CC5C(COCCN6CC[C@@H](F)C6)C5C4)c23)cc1 (some centres unmarked)    < 500 nM
CC(C)NCC1CCN(c2ncnc3scc(C4CCCCC4)c23)CC1    < 500 nM

Q) Quick one: IC50 for CN1CCC(N(C)CC2CCN(c3nc(N4CCC[C@@H]4C(N)=O)nc4scc(-c5ccccc5)c34)CC2)C1 (some centres unmarked) ?
A) < 500 nM

Q) Then this compound: c1ccc(-c2csc3ncnc(N4C5CCC4CC(CNC4CCC4)C5)c23)cc1 (centres unmarked)
A) < 500 nM

Q) How about this compound: CC(C)c1csc2ncnc(N3CC4CC3CC4OCCN3CCCC3)c12 (centres unmarked)
A) < 500 nM

---

target: Kir3.1/3.4 (Rattus norvegicus, UniProt P48548+P63251); construct: expressed in transfected cells; assay: Kir3.1/3.4 Q-patch Method (automated patch clamp, Sophion Q-patch); format: cell-based; settings: HEK293 cells stably-expressing Kir3.1/3.4; current at -120 mV; QPatch-16 or QPatch-48
pIC50: −log10 of the molar value.
READOUT_LABEL: pIC50

COc1ccccc1-c1csc2nc(N3C4CCC3COC4)nc(N3C4CCC3COC4)c12    5.52 to 6.30

--- query ---
Q) Dear colleague, I am looking for the recorded pIC50 of the following compound: NC(=O)C1CN(c2nc(N3C4CCC3COC4)c3c(-c4ccccc4Cl)csc3n2)CCO1 (centres unmarked)
A) > 6.30

---

Biological target: Kir3.1/3.4 (Rattus norvegicus, UniProt P48548+P63251)
Construct: expressed in transfected cells
Sequence (P63251 1-501): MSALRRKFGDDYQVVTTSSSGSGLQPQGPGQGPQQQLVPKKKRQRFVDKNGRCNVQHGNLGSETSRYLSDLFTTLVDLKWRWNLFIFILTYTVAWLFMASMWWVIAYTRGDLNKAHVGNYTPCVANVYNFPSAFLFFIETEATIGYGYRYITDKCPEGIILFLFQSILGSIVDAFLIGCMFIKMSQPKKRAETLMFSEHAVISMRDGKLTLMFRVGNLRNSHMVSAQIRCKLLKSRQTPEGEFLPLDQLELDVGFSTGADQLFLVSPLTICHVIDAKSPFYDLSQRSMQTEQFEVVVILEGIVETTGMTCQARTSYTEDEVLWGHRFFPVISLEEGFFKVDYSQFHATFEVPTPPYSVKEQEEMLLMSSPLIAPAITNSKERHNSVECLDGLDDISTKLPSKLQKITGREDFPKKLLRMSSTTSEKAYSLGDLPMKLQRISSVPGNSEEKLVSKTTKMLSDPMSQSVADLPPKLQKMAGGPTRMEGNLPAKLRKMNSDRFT
Sequence (P48548 1-419): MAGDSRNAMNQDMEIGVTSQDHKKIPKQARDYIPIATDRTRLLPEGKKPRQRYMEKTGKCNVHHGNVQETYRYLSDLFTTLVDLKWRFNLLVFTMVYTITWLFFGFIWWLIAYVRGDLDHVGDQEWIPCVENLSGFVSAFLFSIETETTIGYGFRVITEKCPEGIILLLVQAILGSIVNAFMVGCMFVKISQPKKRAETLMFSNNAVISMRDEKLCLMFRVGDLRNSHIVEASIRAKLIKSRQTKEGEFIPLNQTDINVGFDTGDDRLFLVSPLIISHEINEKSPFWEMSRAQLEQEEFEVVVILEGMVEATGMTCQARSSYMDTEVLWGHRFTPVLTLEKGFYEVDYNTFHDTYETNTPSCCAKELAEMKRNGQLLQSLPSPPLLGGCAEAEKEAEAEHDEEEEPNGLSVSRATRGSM
Assay: Kir3.1/3.4 Electrophysiology Method (manual whole-cell patch clamp)
Format: cell-based
Conditions: Electrophysiology Method (TABLE 1)
pIC50: −log10 of the molar value.
Recorded measurements of pIC50, one per entry

COC1CC2CCC(C1)N2c1nc(OC2CC3CC2CN3)nc2scc(-c3ccccc3)c12 (centres unmarked)    > 6.30
c1ccc(-c2csc3ncnc(N4[C@@H]5CC[C@H]4CC(COCCN4CCCC4)C5)c23)cc1 (some centres unmarked)    > 6.30
O=C1CN(CC2CCN(c3ncnc4scc(-c5ccccc5)c34)CC2)CCN1    5.52 to 6.30
OCCNc1nc(N2CCC(CCO)CC2)c2c(-c3ccc(F)cc3)csc2n1    5.52 to 6.30
CN(C)C(=O)c1sc2ncnc(N3C4CCC3CC(COCCN3CCCC3)C4)c2c1-c1ccccc1 (centres unmarked)    > 6.30

Q) Which pIC50 value belongs to c1ccc(-c2csc3ncnc(N4CC5CC4CC5OCCN4CCCC4)c23)cc1 (centres unmarked) ?
A) > 6.30

Q) Item: CN1CC(NCC2CCN(c3ncnc4scc(-c5ccccc5)c34)CC2)CC1=O (centres unmarked)
A) 5.52 to 6.30

Q) Next record, please: COc1ccccc1-c1csc2ncnc(N3C4CCC3CC(COCCN3CCCC3)C4)c12 (centres unmarked)
A) > 6.30
